# PROTOCOL_DESCRIPTION: Aggregate analysis by widefield fluorescence microscopy
# Type: physicochemical
# MEASUREMENT_PARAMETERS: Fig S8 panels B, D; median aggregate area, 3 fields of 1330 µm x 1330 µm
Ranges used to classify Median Area in 3 * (1330 µm *1330 µm): lower range = under 20, middle range = from 20 up to 50, upper range = 50 and over

Just checking, what class would you give KIKQIIN [JGA3] here? lower range

* * *

# key: entry, value: Count Rate
# PROTOCOL_DESCRIPTION: Turbidity, derived count rate of scattered light
# Assay type: physicochemical
# MEASUREMENT_PARAMETERS: derived count rate of scattered light (turbidity)
Provide a numeric answer; units are not to be included.

Solved entries (count: 5):
# SUBSTANCE, Count Rate
measured = [
    ("KIKIKIKIYYYY", 9918),
    ("RPRGLLLGNLR", 210.1),
    ("CEIEIQI", 51.97),
    ("CKIKIQINMWQ", 1881),
    ("KIKIQII", 1039),
]

Looking up CKIKIQI , I found its Count Rate recorded as 2432.9

* * *

Log10 Count Rate values by entry
# PROTOCOL_DESCRIPTION: Turbidity, derived count rate of scattered light
# Format: physicochemical
# MEASUREMENT_PARAMETERS: Log10 of derived count rate of scattered light (turbidity)

# SUBSTANCE, Log10 Count Rate
records = [
    ("HHHHKAKAKAKAWWWW", 2.8188),
]

Please fill in: Log10 Count Rate reported for RGDKIKIQINMC = 3.147

Form: substance = KIKIKIKI ; Log10 Count Rate = 2.191

Notebook: HHHHKAKAKAKAYYYY , Log10 Count Rate read as 2.382

CKIKIQI yielded Log10 Count Rate of 3.386

Measured Log10 Count Rate of SISISRRI : 1.403

Note to self: Log10 Count Rate recorded for HRRHFRHKITKKK was 0.9777

* * *

Readings of CR / % for the listed substances
# PROTOCOL_DESCRIPTION: Conversion rate (CR) assay with fluorescamine
# Assay type: physicochemical
# MEASUREMENT_PARAMETERS: Fig. S7 panel B; conversion rate, fluorescamine assay

These solved cases illustrate the format of a correct answer.
# SUBSTANCE, CR / %
records = [
    ("CKFKFQFW", "98.7%"),
    ("HIHIQIC", "82.7%"),
    ("RLRLTLC", "87.4%"),
    ("KIKIKIKIWW", "92%"),
    ("CEIEIQINM", "43%"),
    ("CKFKQFFNMWQ", "98.7%"),
]

response.value for CHLHLQL (field: CR / %) = 96.6%

Per the records, this substance ( QCKFKFQFNM ) has CR / % equal to 98.9%

* * *

# Tested on: TZM-bl cells
# Format: cell-based
# MEASUREMENT_PARAMETERS: CellTiter-Glo, peptide 1.3 µM, mean of n = 3 replicates
The entries below come with measured viability 1.3 µM values attached.
Form field (numeric): enter value without unit.

# annotated cases, reported viability 1.3 µM shown
# SUBSTANCE, EXPERIMENTAL_RESULT
data = [
    ("RGDKIKIQINMC [psis29]", 101.5),
    ("QCKIKIQI [CK3]", 97.81),
    ("CKFKFQF [BL4]", 99.36),
    ("KIKIQIC [TM112 / CN11]", 101.3),
    ("CKIKIQIII [AR0 / F19]", 100.4),
]

// sample KIKIKIQINMWQ [VH9] , its viability 1.3 µM was 97.29

viability 1.3 µM reading for RGDSGGGGGGKIKIQIC [TM114 / RC17] : 97.96
